Entries and their GI50
# System: CAKI-1 renal
# test_protocol: NCI tumour cell line growth inhibition, 48 h
quantity: GI50

INSERT INTO results (compound, result) VALUES
  ('C#C[C@]1(O)CCC2C3CCc4cc(O)ccc4C3CC[C@@]21C (some centres not stated)', '9.15 µM'),
  ('CCOC(=O)C(Cc1ccc(CCCC(=O)NCCC(=O)Nc2ccc3nc(C)sc3c2)cc1)C(=O)OCC', '49.1 µM'),
  ('CCC(/C=C/C1OC(=O)C=CC1C)=C\C(C)C/C=C/C(C)=C/C(C)C(=O)C(C)C(O)C(C)C/C(C)=C/C(=O)O (configuration not stated)', '< 1e-06 µM'),
  ('C=C(Cl)C(Br)(CCl)CCC(Br)C(C)(C)Cl (configuration not stated)', '3.69 µM'),
  ('O=C1/C(=C/c2cccc(Cl)c2Cl)N=C(c2ccccc2)N1C1CC1', '14.8 µM'),
  ('COc1ccc(-c2nc3ccc(-c4nc5ccc(N6CCN(c7ccccc7)CC6)cc5[nH]4)cc3[nH]2)cc1OC', '2.18 µM'),
  ('CCC[CH2][Sn]([Cl])([CH2]CCC)[CH2]CCC', '0.167 µM'),
  ('O=C(N[C@@H](c1ccc(Cl)c(Cl)c1)C1CNC1)c1ccc2cnccc2c1', '0.068 µM'),
  ('O=C1C=CC(=O)c2cc3cc(CBr)ccc3cc21', '2.34 µM'),
  ('CO/N=C(\COc1ccc2c(c1)oc(=O)c1cc(OC)ccc12)c1ccc(OC)cc1', '> 100 µM'),
  ('COc1cc2c(cc1OCCCNC(=O)c1cccc3c(=O)c4ccccc4[nH]c13)N=C[C@@H]1CCCN1C2=O', '0.116 µM'),
  ('Cn1cc(-c2csc(-c3c[nH]c4ccc(F)cc34)n2)c2cnccc21', '1.65 µM');

----------
# System: 786-0 renal
# test_protocol: NCI tumour cell line growth inhibition, 48 h
Label scheme for TGI: lower than 3 µM is no (0), 3 µM and above is yes (1).

INSERT INTO results (compound, answer_label) VALUES
  ('NCCNc1c2c(c(NCCN)c3[nH]ccc13)C(=O)c1ccccc1C2=O', 'no (0)'),
  ('C#C[C@]1(O)CCC2C3CCc4cc(O)ccc4C3CC[C@@]21C (stereo not given in full)', 'yes (1)'),
  ('CCC(C)COC(=O)c1ccc(N=Cc2ccc(C=Nc3ccc(C(=O)OCC(C)CC)cc3)cc2)cc1 (stereo not given)', 'yes (1)'),
  ('Cc1ccc(/C=C/C(=O)c2sc(-c3nc(C)c(C(=O)/C=C/c4ccc(C)cc4)s3)nc2C)cc1', 'yes (1)'),
  ('CCCCNC(=S)Nc1nc(C(=O)NNC(=S)Nc2ccccc2)cs1', 'yes (1)'),
  ('Cc1nn(-c2ccccc2)c2c1C(c1ccc(Cl)cc1)NC(=S)N2 (stereo not given)', 'yes (1)'),
  ('O=[N+]([O-])/C(C(Cl)=C(Cl)Cl)=C(/Cl)Sc1ccccc1', 'no (0)'),
  ('[Cl][Hg][c]1cc[c]([Hg][Cl])o1', 'yes (1)'),
  ('CC(CO)(CO)N1C(=O)C2C3C=CC(C3)C2C1=O (stereo not given)', 'yes (1)'),
  ('Cc1c2c(C#N)nccc2c(C)c2c1c1ccccc1n2Cc1ccccc1', 'yes (1)');

----------
# System: SK-OV-3 ovarian
# test_protocol: NCI tumour cell line growth inhibition, 48 h
Let's look at some compounds and their measured TGI.
quantity: TGI

INSERT INTO measurements (compound, target_or_system, quantity, result) VALUES
  ('CC(CO)(CO)N1C(=O)C2C3C=CC(C3)C2C1=O (stereo unspecified)', 'SK-OV-3 ovarian', 'TGI', '> 100 µM'),
  ('COc1cccc(C2=NC(C(C)C)CO2)c1 (stereo unspecified)', 'SK-OV-3 ovarian', 'TGI', '> 100 µM'),
  ('CCN1CCC(O)(c2ccc(OC)cc2)C(C(=O)c2ccc(OC)cc2)C1 (stereo unspecified)', 'SK-OV-3 ovarian', 'TGI', '> 100 µM'),
  ('COc1cc2c(cc1OCCCNC(=O)c1cccc3c(=O)c4ccccc4[nH]c13)N=C[C@@H]1CCCN1C2=O', 'SK-OV-3 ovarian', 'TGI', '> 100 µM'),
  ('CN(C)C1(N(C)C)Oc2c(c(=O)n(C)c(=O)n2C)C(c2ccccc2)C1(F)F (stereo unspecified)', 'SK-OV-3 ovarian', 'TGI', '> 100 µM'),
  ('OC1C#CCSCC#C/C=C\1 (stereo unspecified)', 'SK-OV-3 ovarian', 'TGI', '> 100 µM'),
  ('COc1cc2c(C)cc(O)cc2c2cc(O)c(C)cc12', 'SK-OV-3 ovarian', 'TGI', '23.8 µM'),
  ('COC(=O)c1cc2ccc(N)nc2[nH]c1=O', 'SK-OV-3 ovarian', 'TGI', '> 100 µM'),
  ('Cc1ccc(/C=C/C(=O)c2sc(-c3nc(C)c(C(=O)/C=C/c4ccc(C)cc4)s3)nc2C)cc1', 'SK-OV-3 ovarian', 'TGI', '> 100 µM'),
  ('C=C(Cl)C(Br)(CCl)CCC(Br)C(C)(C)Cl (stereo unspecified)', 'SK-OV-3 ovarian', 'TGI', '27.1 µM'),
  ('CO/N=C(\COc1ccc2c(c1)oc(=O)c1cc(OC)ccc12)c1ccc(OC)cc1', 'SK-OV-3 ovarian', 'TGI', '> 100 µM');

----------
The entries below come with measured TGI values attached.
# Tested on: HCT-116 colon
# test_protocol: NCI tumour cell line growth inhibition, 48 h
quantity: TGI

INSERT INTO assay_data (compound, target_or_system, result) VALUES
  ('O=C(O)CCC(NC(=O)c1ccc(Nc2nc3cc(C(F)(F)F)ccc3nc2-c2ccccc2)cc1)C(=O)O (stereo unspecified)', 'HCT-116 colon', '> 100 µM'),
  ('CC(=O)Oc1ccc2c(C)cc(=O)oc2c1OC(C)=O', 'HCT-116 colon', '> 100 µM'),
  ('CC1(CCOCc2ccccc2)NC(=O)NC1=O (stereo unspecified)', 'HCT-116 colon', '> 100 µM'),
  ('O=C1/C(=C/c2cccc(Cl)c2Cl)N=C(c2ccccc2)N1C1CC1', 'HCT-116 colon', '18.9 µM'),
  ('O=c1c(/C=C/c2c(O)ccc3ccccc23)nnc2sc(-c3cccc(Br)c3)nn12', 'HCT-116 colon', '> 100 µM'),
  ('C=CCCCCOc1ccccc1-c1cnc(OCCCCC=C)n1C', 'HCT-116 colon', '11.8 µM'),
  ('Clc1ccc(C2C3COc4ccccc4C3=NN2c2ccccc2)cc1 (stereo unspecified)', 'HCT-116 colon', '> 100 µM'),
  ('Cc1cc(Cl)ccc1NC(=O)C(=O)Cc1nc2ccccc2o1', 'HCT-116 colon', '> 100 µM'),
  ('COc1cc(NS(C)(=O)=O)ccc1Nc1c2ccccc2nc2c1[nH]c1ccc(NC3OC(CO)C(O)C(O)C3O)cc12 (stereo unspecified)', 'HCT-116 colon', '1.43 µM'),
  ('CN1C2CCC1CC(=CCOC(c1ccc(F)cc1)c1ccc(F)cc1)C2', 'HCT-116 colon', '24.6 µM'),
  ('N#Cc1c(N)n(-c2cccc(C(=O)O)c2)c(=O)c2cc([N+](=O)[O-])ccc12', 'HCT-116 colon', '> 100 µM');

----------
# System: SK-MEL-2 melanoma
# test_protocol: NCI tumour cell line growth inhibition, 48 h; in the data active = GI50 below about 0.43 µM; inactive = the rest
Labels: Y for active, N for inactive

INSERT INTO measurements (compound, target_or_system, answer_label) VALUES
  ('O=C(CC1(O)C(=O)N(Cc2ccccc2)c2ccc(F)cc21)c1ccc(C(=O)NCC2CCC3(CC2)OOC2(CCCCC2)OO3)cc1 (stereo not given)', 'SK-MEL-2 melanoma', 'N'),
  ('COc1cc2c3c(n(C)c(=O)c2cc1OC)-c1cc2c(cc1/C3=C\CN)OCO2', 'SK-MEL-2 melanoma', 'N'),
  ('CCC(/C=C/C1OC(=O)C=CC1C)=C\C(C)C/C=C/C(C)=C/C(C)C(=O)C(C)C(O)C(C)C/C(C)=C/C(=O)O (stereo not given)', 'SK-MEL-2 melanoma', 'Y'),
  ('Cn1cc(-c2csc(-c3c[nH]c4ccc(F)cc34)n2)c2cnccc21', 'SK-MEL-2 melanoma', 'N'),
  ('COc1ccc(C(=O)/C=C/c2cc(-c3cc(OC)c(OC)c(OC)c3)n[nH]2)cc1OC', 'SK-MEL-2 melanoma', 'N'),
  ('[Cl][Hg][c]1cc[c]([Hg][Cl])o1', 'SK-MEL-2 melanoma', 'N'),
  ('COc1ccc2[nH]cc(C3(c4c[nH]c5ccc(OC)cc45)C(=O)Nc4ccc(F)cc43)c2c1', 'SK-MEL-2 melanoma', 'N'),
  ('O=c1cc(-c2cccc3ccccc23)[nH]c2ncccc12', 'SK-MEL-2 melanoma', 'Y'),
  ('CCn1c2ccccc2c2cc(NC(=O)Nc3ccc([N+](=O)[O-])cc3C)ccc21', 'SK-MEL-2 melanoma', 'N'),
  ('COc1cc(NCc2ccc3nc(N)nc(N)c3c2C)cc(OC)c1OC (tested in a mixture with another compound)', 'SK-MEL-2 melanoma', 'Y');

Cited source: PubChem BioAssay (NCI)
